Test system: 556581-035-R-J1-PDC complex spheroid growth;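 also: compound exposure lasted 7 days; 100% = DMSO vehicle control growth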
Assay overview: Anticancer human tumor 556581-035-R-J1-PDC patient-derived ovarian carcinoma cell line growth inhibition [AhR]
Test settings: second compound 1 µM; first compound 10 µM; hits give low values
Listed here are compounds together with their documented viability, T/C.

Reference set (3 entries):
COc1cc(Nc2ncc3c(n2)-c2ccc(Cl)cc2C(c2c(F)cccc2OC)=NC3)ccc1C(=O)O + Cc1cncc(-c2nc(NCCc3c[nH]c4ccccc34)c3ncn(C(C)C)c3n2)c1 : 65.9%
CC(C)c1c(-c2ccccc2)nc2c(C#N)c[nH]n2c1=O + Cc1cncc(-c2nc(NCCc3c[nH]c4ccccc34)c3ncn(C(C)C)c3n2)c1 : 102%
COc1cccc2c1C(=O)c1c(O)c3c(c(O)c1C2=O)CC(O)(C(=O)CO)CC3OC1CC(N)C(O)C(C)O1 (centres undefined) + Cc1cncc(-c2nc(NCCc3c[nH]c4ccccc34)c3ncn(C(C)C)c3n2)c1 : 2.01%

Could you now look at the following compound, please?
Request: In one line, give reported viability, T/C of the entry COc1ccc([C@@H](O)c2cc(-c3ncnc4cc(N5CCOCC5)ccc34)c(F)cc2Cl)nn1 + Cc1cncc(-c2nc(NCCc3c[nH]c4ccccc34)c3ncn(C(C)C)c3n2)c1 .
Response: 42.5%

Sourced from PubChem BioAssay AID1918999
